Task for the reader: assign each of the following compounds its reported % Activation.
tested-on: ΔF508-CFTR (Homo sapiens, UniProt P13569, DEL508-508)
Construct: host or cells: CFBE41o-, doxycycline-inducible
Sequence (P13569 with tags, fused parts or gaps DEL508-508): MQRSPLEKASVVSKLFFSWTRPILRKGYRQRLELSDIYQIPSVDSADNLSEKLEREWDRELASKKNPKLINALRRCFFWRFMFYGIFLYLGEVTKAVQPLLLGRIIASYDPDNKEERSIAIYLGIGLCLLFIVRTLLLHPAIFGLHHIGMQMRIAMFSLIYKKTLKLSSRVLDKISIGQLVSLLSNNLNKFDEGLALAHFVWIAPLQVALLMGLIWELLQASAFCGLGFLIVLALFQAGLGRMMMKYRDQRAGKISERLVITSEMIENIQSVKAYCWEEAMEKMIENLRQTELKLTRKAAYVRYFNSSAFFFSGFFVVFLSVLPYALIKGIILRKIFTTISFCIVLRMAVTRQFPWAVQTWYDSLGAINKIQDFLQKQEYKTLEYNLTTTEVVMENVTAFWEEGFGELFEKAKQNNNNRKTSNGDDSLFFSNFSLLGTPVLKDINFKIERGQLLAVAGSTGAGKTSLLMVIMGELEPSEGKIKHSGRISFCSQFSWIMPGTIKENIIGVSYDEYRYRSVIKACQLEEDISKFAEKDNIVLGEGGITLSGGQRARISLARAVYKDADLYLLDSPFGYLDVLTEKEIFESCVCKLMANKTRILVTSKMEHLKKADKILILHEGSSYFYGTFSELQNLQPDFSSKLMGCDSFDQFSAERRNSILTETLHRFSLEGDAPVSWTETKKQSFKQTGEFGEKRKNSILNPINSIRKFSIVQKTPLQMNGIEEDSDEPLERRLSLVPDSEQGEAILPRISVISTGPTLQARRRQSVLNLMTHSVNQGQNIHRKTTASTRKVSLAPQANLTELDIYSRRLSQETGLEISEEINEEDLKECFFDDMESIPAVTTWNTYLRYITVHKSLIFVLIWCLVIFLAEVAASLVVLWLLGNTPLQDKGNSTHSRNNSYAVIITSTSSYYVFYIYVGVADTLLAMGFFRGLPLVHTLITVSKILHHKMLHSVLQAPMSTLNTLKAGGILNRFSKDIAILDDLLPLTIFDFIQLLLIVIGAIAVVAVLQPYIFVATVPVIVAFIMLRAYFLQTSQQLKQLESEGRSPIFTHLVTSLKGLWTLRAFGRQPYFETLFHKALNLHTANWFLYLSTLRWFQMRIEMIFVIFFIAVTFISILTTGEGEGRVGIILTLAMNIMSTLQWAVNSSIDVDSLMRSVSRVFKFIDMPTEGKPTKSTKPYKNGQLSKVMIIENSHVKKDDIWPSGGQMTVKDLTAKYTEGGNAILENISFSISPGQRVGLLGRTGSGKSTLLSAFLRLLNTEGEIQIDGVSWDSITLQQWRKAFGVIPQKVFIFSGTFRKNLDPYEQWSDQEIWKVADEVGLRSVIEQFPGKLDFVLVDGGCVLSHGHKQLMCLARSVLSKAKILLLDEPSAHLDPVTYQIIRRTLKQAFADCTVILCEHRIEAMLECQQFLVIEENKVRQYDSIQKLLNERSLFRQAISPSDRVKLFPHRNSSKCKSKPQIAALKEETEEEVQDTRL
test-summary: CFTR cell surface levels using HRP-tagged ΔF508-CFTR expressing CFBE cells, intrinsic corrector capacity
Type: cell-based
cond: HRP-tagged ΔF508-CFTR expressing CFBE cells; intrinsic corrector capacity (no co-corrector); 33° C., 20 hours

Prompt: Look up % Activation: CC(C)N1CCN(C2CCN(c3cc(C(=O)O)nc4c3c(C3CCC3)nn4C3CCCCC3)CC2)CC1 [compound 880]
Response: 259.5%

Prompt: Continue with COCCC1CCN(c2cc(C(=O)O)nc3c2c(C2CCC2)nn3-c2ccccc2)CC1 [compound 403]
Response: 293.4%

Prompt: Request: O=C(O)c1cc(N2CCC(CN3CC[C@@H](F)C3)CC2)c2c(C3CCC3)nn(-c3ccccc3)c2n1 [compound 832]
Response: 250.5%

Prompt: Next: CC1(C)OC[C@@H](COc2cc(C(=O)O)nc3c2c(C2CCC2)nn3-c2ccccc2)O1 [compound 618]
Response: 105.9%

Prompt: Also check CN1C(=O)CN(CC2CCN(c3cc(C(=O)O)nc4c3c(C3CCC3)nn4-c3ccccc3)CC2)CC12COC2 [compound 845]
Response: 273.7%

Prompt: Repeat for the following compound: O=C(O)c1cc(N2CCC3(CC2)CCN(C2COC2)CC3)c2c(C3CCC3)nn(-c3ccc(F)cc3)c2n1 [compound 904]
Response: 200.1%

Prompt: What do we get for O=C(O)c1cc(N2CCC(N3CC4CC3CO4)CC2)c2c(C3CCC3)nn(-c3ccc(F)cc3)c2n1 (stereo not shown) [compound 852] ?
Response: 120.6%
